For each of the compounds below, state its IC50.

Challenge: Please tell me: IC50 of Cc1nc2cc(NC(=O)c3cc4sc(N5CCC(C(=O)N(C)C)CC5)nc4s3)ccc2o1 , system Cytochrome P450 3A4 (Homo sapiens)?
Response given: > 50 µM

Challenge: Cytochrome P450 3A4 (Homo sapiens) / IC50 / O=C(Nc1ccc(-c2ccc(F)cn2)cc1)c1cc2sc(NCCN3CCOCC3)nc2s1 : value?
Response given: 6.95 µM

---

measurement name: pIC50
Remember the convention: pIC50 equals -log10 of concentration in molar.

Challenge: For Cytochrome P450 2D6 (Homo sapiens), provide pIC50 of O=C(Nc1ccc(-c2ccc(F)cn2)cc1)c1cc2sc(NCCN3CCOCC3)nc2s1 please.
Response given: 5.16
